Recorded values, source patent US9303017B2.

- Study target: rat α3β4 nAChRs (Rattus norvegicus (Rat), UniProt P04757+P12392)
- Sequence (P04757 26-499): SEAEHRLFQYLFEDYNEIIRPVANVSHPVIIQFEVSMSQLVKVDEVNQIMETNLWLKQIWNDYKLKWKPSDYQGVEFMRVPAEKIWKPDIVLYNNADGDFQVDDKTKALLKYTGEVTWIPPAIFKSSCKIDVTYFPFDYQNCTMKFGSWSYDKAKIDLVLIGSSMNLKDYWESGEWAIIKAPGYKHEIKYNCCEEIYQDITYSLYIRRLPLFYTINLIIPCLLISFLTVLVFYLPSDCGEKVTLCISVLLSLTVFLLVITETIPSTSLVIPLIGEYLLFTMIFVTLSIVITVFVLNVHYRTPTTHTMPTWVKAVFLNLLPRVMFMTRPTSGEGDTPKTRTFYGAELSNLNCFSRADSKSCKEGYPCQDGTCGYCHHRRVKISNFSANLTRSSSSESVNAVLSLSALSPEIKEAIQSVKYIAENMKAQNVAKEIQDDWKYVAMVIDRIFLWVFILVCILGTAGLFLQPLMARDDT
- Sequence (P12392 21-495): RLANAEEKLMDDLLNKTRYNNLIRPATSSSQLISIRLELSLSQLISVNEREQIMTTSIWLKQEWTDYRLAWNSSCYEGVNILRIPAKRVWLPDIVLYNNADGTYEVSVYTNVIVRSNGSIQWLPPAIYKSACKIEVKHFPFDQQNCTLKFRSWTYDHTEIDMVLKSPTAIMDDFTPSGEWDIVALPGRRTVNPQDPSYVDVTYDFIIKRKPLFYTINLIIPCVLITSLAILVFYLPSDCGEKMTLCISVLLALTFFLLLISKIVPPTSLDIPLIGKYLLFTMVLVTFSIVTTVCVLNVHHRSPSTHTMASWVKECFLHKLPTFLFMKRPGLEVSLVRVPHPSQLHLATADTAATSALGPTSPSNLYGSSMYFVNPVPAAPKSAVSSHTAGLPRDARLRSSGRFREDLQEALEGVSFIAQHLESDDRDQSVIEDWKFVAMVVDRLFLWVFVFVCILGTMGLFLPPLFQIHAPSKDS
- Measurement notes: 86Rb+ efflux assay (activation and desensitization), α3β4
- Assay type: cell-based
- Experimental setup: read-out: IC50(10′) α3β4
Would you mind telling me the reported pIC50 of each entry?
As a rule, pIC50 stands for the negative log10 of the concentration, concentration in M.

INPUT: Quick check: pIC50 of Cc1ncc(C#CC2CC2)cc1OC[C@@H]1CCN1 [(S)-27] ?
OUTPUT: 4.44

INPUT: Queued: Cc1ncc(C#CCCCCF)cc1OC[C@@H]1CCN1 [(S)-22]
OUTPUT: 4.89

INPUT: Another compound to check: Cc1ncc(C#CCCCCO)cc1OC[C@@H]1CCN1 [(S)-17]
OUTPUT: 4.30

INPUT: Next up: Cc1ncc(C#CCCCCCl)cc1OC[C@@H]1CCN1 [(S)-21]
OUTPUT: 4.96
